Values compiled from patent US20220372160A1.

Target: T1, recombinant human CD39 (human, UniProt P49961 38-478)
T1 chain: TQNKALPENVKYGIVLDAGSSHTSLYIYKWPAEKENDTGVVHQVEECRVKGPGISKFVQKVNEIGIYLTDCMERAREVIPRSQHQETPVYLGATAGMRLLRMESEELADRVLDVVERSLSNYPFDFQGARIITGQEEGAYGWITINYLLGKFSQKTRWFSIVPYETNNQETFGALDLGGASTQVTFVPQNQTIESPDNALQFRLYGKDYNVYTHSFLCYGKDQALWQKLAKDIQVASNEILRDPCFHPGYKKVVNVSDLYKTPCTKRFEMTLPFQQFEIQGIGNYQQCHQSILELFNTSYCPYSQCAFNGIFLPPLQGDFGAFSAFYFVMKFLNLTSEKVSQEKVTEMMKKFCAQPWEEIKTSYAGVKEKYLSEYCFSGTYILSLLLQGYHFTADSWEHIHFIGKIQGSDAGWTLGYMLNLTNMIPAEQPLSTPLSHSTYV
Experiment: BLI (ForteBio); IgG, monovalent
Quantity: pKd
Note on units: pKd is unitless, being -log10 of a concentration expressed in mol/L.

Answered cases to consult:
Binder: Clone #11 (antibody, V domains shown) VH: QVQLVQSGAEVKKPGSSVKVSCKASGGTFSNYAISWVRQAPGQGLEWMGGIIPIFGTANYAQKFQGRVTITADESTSTAYMELSSLRSEDTAVYYCARPRGDYSGYDAGPIDYWGQGTLVTVSS VL: EIVMTQSPATLSLSPGERATLSCRASQSVSSYLAWYQQKPGQAPRLLIYDSSNRATGIPARFSGSGSGTDFTLTISSLEPEDFAVYYCQQRYLFPITFGGGTKVEIK
pKd: 7.83
//
Binder: Clone #10 (antibody, V domains shown) VH: QVQLVQSGAEVKKPGSSVKVSCKASGGTFSNYAISWVRQAPGQGLEWMGGIIPIFGTANYAQKFQGRVTITADESTSTAYMELSSLRSEDTAVYYCARPRGDYSGYDAGPIDYWGQGTLVTVSS VL: EIVLTQSPATLSLSPGERATLSCRASQSVSSYLAWYQQKPGQAPRLLIYDASNRATGIPARFSGSGSGTDFTLTISSLEPEDFAVYYCQQRFHFPPTFGGGTKVEIK
pKd: 7.43
//
Binder: Clone #16 (antibody, V domains shown) VH: QVQLVQSGAEVKKPGSSVKVSCKASGGTFSSNAIGWVRQAPGQGLEWMGGIIPAFGTANYAQKFQGRVTITADESTSTAYMELSSLRSEDTAVYYCARDPVRRSPFDIWGQGTMVTVSS VL: EIVLTQSPATLSLSPGERATLSCRASQSVSSYLAWYQQKPGQAPRLLIYDSSNRATGIPARFSGSGSGTDFTLTISSLEPEDFAVYYCQQSFLWPRTFGGGTKVEIK
pKd: 8.42
//
Binder: Clone #6 (antibody, V domains shown) VH: EVQLVESGGGLVQPGGSLRLSCAASGFTFSSYGMSWVRQAPGKGLEWVANIKQDGSEKYYVDSVKGRFTISRDNAKNSLYLQMNSLRAEDTAVYYCARDFTRWSHVNWFDPWGQGTLVTVSS VL: EIVMTQSPATLSVSPGERATLSCRASQSVSSSLAWYQQKPGQAPRLLIFGASTRATGIPARFSGSGSGTEFTLTISSLQSEDFAVYYCQQYYHHPYTFGGGTKVEIK
pKd: 6.75

Sure, the documented pKd for Clone #19 (antibody, V domains shown) VH: EVQLVESGGGLVQPGGSLRLSCAASGFTFRSYWMSWVRQAPGKGLEWVATIKQDGSEKFYVDSVKGRFTISRDNAKNSLYLQMNSLRAEDTAVYYCARDFTRWSHVNWFDPWGQGTLVTVSS VL: EIVMTQSPATLSVSPGERATLSCRASQSVSSSLAWYQQKPGQAPRLLIFGASTRATGIPARFSGSGSGTEFTLTISSLQSEDFAVYYCQQYYHHPYTFGGGTKVEIK is 7.55

Sure, the documented pKd for Clone #12 (antibody, V domains shown) VH: EVQLVESGGGLVQPGGSLRLSCAASGFTFSSYYMQWVRQAPGKGLEWVSYISSSSSTIGYADSVKGRFTISRDNAKNSLYLQMNSLRAEDTAVYYCAKGPRYDSSGYRWRYGMDVWGQGTTVTVSS VL: DIQMTQSPSSLSASVGDRVTITCRASQSISSYLNWYQQKPGKAPKLLIYAASSLQSGVPSRFSGSGSGTDFTLTISSLQPEDFATYYCQQLALTPYTFGGGTKVEIK is 8.86

Sure, the documented pKd for Clone #8 (antibody, V domains shown) VH: QLQLQESGPGLVKPSETLSLTCTVSGGSISSSSYYWGWIRQPPGKGLEWIGSIYYSGSTYYNPSLKSRVTISVDTSKNQFSLKLSSVTAADTAVYYCARGSPTYHDFDLWGRGTLVTVSS VL: EIVLTQSPATLSLSPGERATLSCRASQSVSSYLAWYQQKPGQAPRLLIYDASNRATGIPARFSGSGSGTDFTLTISSLEPEDFAVYYCQQRAIWPPTFGGGTKVEIK is 7.55
